- TEST_METHOD_NOTES: EL4 T cell viability, ATP viability assay (ATPLite 1-step Luminescence)
- Assay type: cell-based
- REPORTED_CONDITIONS: mouse; EL4 T cells, 6.25 µg/mL of agent

[
  {
    "COMPOUND_STRUCTURE_STRING": "C[C@@H]1O[C@@H](O[C@H]2[C@H](Oc3cc(O)c4c(c3)O[C@H](c3ccc(O)cc3)CC4=O)O[C@H](CO)[C@@H](O)[C@@H]2O)[C@H](O)[C@H](O)[C@H]1O",
    "UNITS_TEXT": "%",
    "viability at 6.25 µg/mL": 75.8
  }
]
